# Tested on: TK-10 renal
# assay.procedure: NCI-60 one-dose screen, 48 h
# assay.conditions: 10 µM unless noted
This is part of a sample that, as a whole, favours compounds with a hit. Of some 83,000 tested, about 20% had one in any assay. The source made the active and inactive calls. The calls were made as follows: active = growth percent below 10; inactive = the rest.
Reply using exactly one outcome from active, inactive

**Q:** Assay outcome for CCOC(=O)c1cc(C(=O)c2ccc(Br)cc2)n2cc(C)cc(C)c12 : what was it?
**A:** inactive

**Q:** Assay outcome for Cc1ccnc2c(NC(C)CCCN)cc(O)c(O)c12 (configuration not stated) : what was it?
**A:** inactive

**Q:** Assay outcome for CC(=O)OCC(=O)[C@@]1(O)[C@H](C)C[C@H]2[C@@H]3C=C(C)C4=Cc5c(cnn5-c5ccc(F)cc5)C[C@]4(C)[C@H]3[C@@H](O)C[C@@]21C : what was it?
**A:** inactive

**Q:** Assay outcome for COc1ccc(Cn2cc3c(c2-c2ccccc2)CCc2cnoc2-3)cc1OC : what was it?
**A:** inactive

**Q:** Assay outcome for COc1ccc(/C=C(/C(=O)N2CCN(c3ccc(C)cc3)CC2)c2cc(OC)c(OC)c(OC)c2)cc1N : what was it?
**A:** inactive

**Q:** Assay outcome for CC(C)(CNC1CCCCC1)OC(=O)c1ccccc1 : what was it?
**A:** inactive

**Q:** Assay outcome for CC[C@H](Nc1ncnc2nc[nH]c12)c1nc2cccc(NCc3ccc(C(=O)NO)o3)c2c(=O)n1-c1ccccc1 : what was it?
**A:** inactive

**Q:** Assay outcome for CN1CCN(Cc2ccc(NC(=O)c3ccc(C#Cc4c(N)ncc5ccc(F)cc45)cc3)cc2C(F)(F)F)CC1 : what was it?
**A:** active

**Q:** Assay outcome for CC(=O)N1CCN(CCNC(=O)n2cc(-c3ccncc3)c(-c3ccc(O)c(Cl)c3)n2)CC1 : what was it?
**A:** inactive

**Q:** Assay outcome for O=C(O)c1ccc(-c2nn(-c3ccc(C(=O)O)cc3)cc2CNc2ccc(Br)cc2)cc1 : what was it?
**A:** inactive

----------
# Test system: UACC-62 melanoma
# assay.procedure: NCI-60 one-dose screen, 48 h
# assay.conditions: 10 µM unless noted
# Description: Growth inhibition of the UACC-62 human tumor cell line is measured as a screen for anti-cancer activity. Cells are grown in 96 well plates and exposed to the test compound for 48 hours. Compounds are tested at a single concentration, which is 10^-5 M for most compounds. The reported endpoint is percent growth (GI% or GIPRCNT), where numbers from 0 - 100% represent growth inhibition, and numbers from -100% - 0 represent cell death. For example, a value of 40 represents 60% growth inhibition. […]
About 83,000 compounds went through this panel and 20% of them were active in at least one assay; those are over-represented in the sample as a whole. The source made the active and inactive calls. Rule for the calls: active = growth percent below 10; inactive = the rest.
Reply using exactly one outcome from active, inactive

Some solved entries appear below for comparison.
[
  {
    "compound": "CCCCN(CCCC)c1ccc(C(=O)O)cc1",
    "study.system": "UACC-62 melanoma",
    "label.value": "inactive"
  },
  {
    "compound": "C/C=C(/C)C(=O)OC1C=C(CO)C(=O)C(OC(=O)C(C)(O)C(C)Cl)C1C(C)C (stereo not given)",
    "study.system": "UACC-62 melanoma",
    "label.value": "active"
  },
  {
    "compound": "C/C=C(/C)C(=O)OC1C=C(CO)C(=O)C(OC(=O)/C(C)=C\\C)C1C(C)C (stereo not given)",
    "study.system": "UACC-62 melanoma",
    "label.value": "active"
  },
  {
    "compound": "COc1ccc(CN2C(=O)/C(=C\\C(=O)c3ccc(OCCN4CCCC4)cc3)c3ccccc32)cc1",
    "study.system": "UACC-62 melanoma",
    "label.value": "inactive"
  }
]

Okay, next one:
**Q:** Assay outcome for Cc1cc2c(-c3nc4ccccc4[nH]3)c(O)c(O)cc2c(O)c1-c1c(C)cc2c(-c3nc4ccccc4[nH]3)c(O)c(O)cc2c1O : what was it?
**A:** active
